Recorded measurements of Activity, one per entry
Target: UniProtKB P49961
Sequence (whole entry): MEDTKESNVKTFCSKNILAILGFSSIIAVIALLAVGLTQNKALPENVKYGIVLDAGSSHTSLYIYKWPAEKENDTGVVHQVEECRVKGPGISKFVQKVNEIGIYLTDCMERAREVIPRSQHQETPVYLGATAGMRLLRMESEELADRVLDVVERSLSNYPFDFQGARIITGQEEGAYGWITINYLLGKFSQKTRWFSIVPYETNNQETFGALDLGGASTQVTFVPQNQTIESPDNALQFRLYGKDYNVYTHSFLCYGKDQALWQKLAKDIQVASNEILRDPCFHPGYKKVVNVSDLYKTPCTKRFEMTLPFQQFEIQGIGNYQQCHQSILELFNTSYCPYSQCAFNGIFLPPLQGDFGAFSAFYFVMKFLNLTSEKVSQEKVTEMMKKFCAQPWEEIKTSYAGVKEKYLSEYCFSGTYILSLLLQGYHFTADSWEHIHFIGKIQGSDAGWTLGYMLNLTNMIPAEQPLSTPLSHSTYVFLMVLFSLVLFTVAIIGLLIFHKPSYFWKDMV
Test: Activity of human NTPDase 1 expressed in human 293T cells assessed as drug hydrolysis at 100 uM after 20 mins relative to ATP
Format: cell-based
Set-up: scale not given: the % may be the effect or the level left

molecule	Activity
BP(=O)(OC[C@H]1O[C@@H](n2cnc3c(N)ncnc32)[C@H](O)[C@@H]1O)OP(=O)(O)CP(=O)(O)O (single isomer, unassigned; diastereomer B)	0%
BP(=O)(OC[C@H]1O[C@@H](n2cnc3c(N)ncnc32)[C@H](O)[C@@H]1O)OP(=O)(O)CP(=O)(O)O (stereo not given in full)	1%
BP(=O)(OC[C@H]1O[C@@H](n2cnc3c(N)nc(SC)nc32)[C@H](O)[C@@H]1O)OP(=O)(O)CP(=O)(O)O (single isomer, unassigned; diastereomer B)	< 1%
BP(=O)(OC[C@H]1O[C@@H](n2cnc3c(N)nc(SC)nc32)[C@H](O)[C@@H]1O)OP(=O)(O)CP(=O)(O)O (single isomer, unassigned; diastereomer A)	< 1%
CSc1nc(N)c2ncn([C@@H]3O[C@H](COP(=O)(O)OP(=O)(O)CP(=O)(O)O)[C@@H](O)[C@H]3O)c2n1	8%

All figures here come from ChEMBL document CHEMBL1137702.
